Entry source: ChEMBL document CHEMBL1155301

# study_system: Dual 3',5'-cyclic-AMP and -GMP phosphodiesterase 11A (Homo sapiens)
# Sequence (Q9HCR9 whole entry): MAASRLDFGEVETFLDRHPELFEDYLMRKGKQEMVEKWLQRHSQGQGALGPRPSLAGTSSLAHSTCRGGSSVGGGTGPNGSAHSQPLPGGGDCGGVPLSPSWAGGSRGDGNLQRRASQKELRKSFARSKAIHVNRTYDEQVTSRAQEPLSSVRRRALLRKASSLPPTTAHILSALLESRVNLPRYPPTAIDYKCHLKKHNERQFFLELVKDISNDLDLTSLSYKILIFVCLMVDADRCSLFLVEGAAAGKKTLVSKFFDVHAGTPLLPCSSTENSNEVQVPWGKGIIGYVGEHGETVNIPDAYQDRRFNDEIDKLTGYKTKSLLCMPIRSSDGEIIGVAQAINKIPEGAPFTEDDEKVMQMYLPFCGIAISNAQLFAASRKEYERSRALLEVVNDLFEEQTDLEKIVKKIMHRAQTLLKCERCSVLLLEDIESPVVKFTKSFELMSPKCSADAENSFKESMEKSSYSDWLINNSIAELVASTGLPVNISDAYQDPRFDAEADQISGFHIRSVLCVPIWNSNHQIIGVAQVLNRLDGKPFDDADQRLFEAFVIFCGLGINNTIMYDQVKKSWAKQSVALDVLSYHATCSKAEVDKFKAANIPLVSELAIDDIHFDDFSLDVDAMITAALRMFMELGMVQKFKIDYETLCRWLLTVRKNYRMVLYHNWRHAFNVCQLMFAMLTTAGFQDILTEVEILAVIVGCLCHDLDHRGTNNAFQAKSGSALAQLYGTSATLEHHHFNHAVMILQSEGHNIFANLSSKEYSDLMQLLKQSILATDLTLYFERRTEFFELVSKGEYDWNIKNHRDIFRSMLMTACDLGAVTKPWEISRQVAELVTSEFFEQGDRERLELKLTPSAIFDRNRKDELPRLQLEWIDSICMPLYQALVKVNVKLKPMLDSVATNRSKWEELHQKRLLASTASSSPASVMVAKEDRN
measured_metric: IC50 (µM)
Express the result in µM but write the number alone.

# query: IC50 of entry CCCOCCn1c(=O)c(NCCN2CCOCC2)nc2cnc(-c3ccc(OC)nc3)cc21 0.346

----------
# reported log10 of IC50; entries follow
# study_system: cGMP-specific 3',5'-cyclic phosphodiesterase (Homo sapiens, UniProt O76074)
Response schema: value (number) is log10 of IC50 in units of nM.

// worked examples, log10 of IC50 included
> print(dat)
                                    molecule  measured.result
 1  CCCOCCn1c(=O)c(NC[C@@H](C)O)nc2ncc(-c3ccc(OC)nc3)cc21            -0.27
 2  CCCOCCn1c(=O)c(N[C@@H](C)CO)nc2ncc(-c3ccc(OC)nc3)cc21            -0.26
 3  CCCOCCn1c(=O)c(NCCO)nc2ncc(-c3ccc(OC)nc3)cc21             0.07
 4  CCCOCCn1c(=O)c(NCCNCCO)nc2cnc(-c3ccc(OC)nc3)cc21             0.04
 5  CCCOCCn1c(=O)c(NCC2CCCO2)nc2cnc(-c3ccc(OC)nc3)cc21 (racemic)            -1.30
 6  CCCOCCn1c(=O)c(NCC(=O)N2CCN(C)CC2)nc2ncc(-c3ccc(OC)nc3)cc21            -0.49
 7  CCCOCCn1c(=O)c(NCC(=O)N2CCCC2)nc2cnc(-c3ccc(OC)nc3)cc21            -1.10
 8  CCCOCCn1c(=O)c(N[C@H](C)CO)nc2ncc(-c3ccc(OC)nc3)cc21            -0.06
 9  CCCOCCn1c(=O)c(NCC(=O)N2CCC(O)CC2)nc2cnc(-c3ccc(OC)nc3)cc21            -0.89
10  CCCOCCn1c(=O)c(NCC(=O)NC)nc2cnc(-c3ccc(OC)nc3)cc21            -1.15

Consider the additional molecule presented here.
Missing value: log10 of IC50, cGMP-specific 3',5'-cyclic phosphodiesterase (Homo sapiens, UniProt O76074), entry CCCOCCn1c(=O)c(NCCN(C)C)nc2ncc(-c3ccc(OC)nc3)cc21 . Fill in? 0.60
